target: T1, human CD38 (full length, on cells) (human, UniProt P28907 1-300); experiment: flow cytometry, binding to Daudi cells
T1 construct: Endogenous on Daudi, Raji, Jurkat cells, human PBMC/T cells; full-length CD38 expressed in HEK-293T cells for alanine scanning; also called Uniprot P28907
Quick list: Max MFI per entry.
Number only, in MFI; omit the unit.

Illustrative cases are given below, each with its answer.
- BINDER: "aCD38-b-348-m4 (antibody, IgG1, V domains shown) VH: QLQLQESGPGLVKPSETLSLTCTVSGGSISSSDYYWGWIRQPPGKGLEWIGSIYYSGSTYYNPSLKSRVTISVDTSKNQFSLKLSSVTAADTAVYYCARGQYSSGWYAYPFDMWGQGTMVTVSS VL: EIVLTQSPGTLSLSPGERATLSCRASQSVRSSYLAWYQQKPGQAPRLLIYGASSRATGIPDRFSGSGSGTDFTLTISRLEPEDFAVYYCQQEGNVYTFGGGTKVEIK"
  Max MFI (MFI): 2020
- BINDER: "aCD38-b-348 (human IgG1) (antibody, V domains shown, Human IgG1) VH: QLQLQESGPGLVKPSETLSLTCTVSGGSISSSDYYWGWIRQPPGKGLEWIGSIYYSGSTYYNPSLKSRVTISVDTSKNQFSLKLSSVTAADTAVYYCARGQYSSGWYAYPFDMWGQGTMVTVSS VL: EIVLTQSPGTLSLSPGERATLSCRASQSVRSSYLAWYQQKPGQAPRLLIYGASSRATGIPDRFSGSGSGTDFTLTISRLEPEDFAVYYCQQDGNVYTFGGGTKVEIK"
  Max MFI (MFI): 2320

Pending binder:
The binder identified as aCD38-b-348-m2 (antibody, IgG1, V domains shown) VH: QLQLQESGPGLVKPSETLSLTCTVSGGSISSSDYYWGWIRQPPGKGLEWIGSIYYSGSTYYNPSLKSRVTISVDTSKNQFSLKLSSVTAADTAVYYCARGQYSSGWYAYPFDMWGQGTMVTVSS VL: EIVLTQSPGTLSLSPGERATLSCRASQSVRSSYLAWYQQKPGQAPRLLIYGASSRATGIPDRFSGSGSGTDFTLTISRLEPEDFAVYYCQQDSNVYTFGGGTKVEIK registered its Max MFI at 2220

Taken from patent US20200190209A1.
